Ref: the supplement of paper PMC9112550

Each record here notes measured shrunken log2 fold change.
system: Escherichia coli TOP10; experiment: shrunken log2 fold change of peptide-encoding DNA abundance (4.5 h post-induction vs induction); higher = less antimicrobial activity (less host growth inhibition); settings: time post-induction: 4.5 h; library: site-saturation at positions 5, 18, 19, 20;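 note: peptides expressed intracellularly from a pBAD plasmid library in pooled LB shake-flask culture, induced with 0.3% L-arabinose, DNA abundance read by NGS, three biological replicates, DESeq2 with apeglm shrinkage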
readout: shrunken log2 fold change

- sequenceData: "RRIRMRPPRLPRPRPRPKRDPRP"
  resultValue: 1.15
- sequenceData: "RRIRFRPPRLPRPRPRPRSVPRP"
  resultValue: -0.00149
- sequenceData: "RRIRNRPPRLPRPRPRPASCPRP"
  resultValue: -0.233
- sequenceData: "RRIRMRPPRLPRPRPRPHIKPRP"
  resultValue: -0.501
- sequenceData: "RRIRYRPPRLPRPRPRPKCIPRP"
  resultValue: -0.154
- sequenceData: "RRIRPRPPRLPRPRPRPLKCPRP"
  resultValue: -0.131
- sequenceData: "RRIRRRPPRLPRPRPRPKYDPRP"
  resultValue: -0.466
- sequenceData: "RRIRKRPPRLPRPRPRPSPCPRP"
  resultValue: 0.13
- sequenceData: "RRIRDRPPRLPRPRPRPMAGPRP"
  resultValue: 0.00396
- sequenceData: "RRIRFRPPRLPRPRPRPCVAPRP"
  resultValue: -0.201
- sequenceData: "RRIRRRPPRLPRPRPRPLPWPRP"
  resultValue: 0.057
- sequenceData: "RRIRWRPPRLPRPRPRPPNSPRP"
  resultValue: 0.39
- sequenceData: "RRIRTRPPRLPRPRPRPWNRPRP"
  resultValue: -0.0406
- sequenceData: "RRIRGRPPRLPRPRPRPILPPRP"
  resultValue: 0.0676
- sequenceData: "RRIRYRPPRLPRPRPRPSDYPRP"
  resultValue: -1.34
- sequenceData: "RRIRPRPPRLPRPRPRPDHWPRP"
  resultValue: 0.0752
- sequenceData: "RRIRDRPPRLPRPRPRPFMKPRP"
  resultValue: -0.0698
- sequenceData: "RRIRFRPPRLPRPRPRPPDKPRP"
  resultValue: 0.151
- sequenceData: "RRIRMRPPRLPRPRPRPCSYPRP"
  resultValue: -0.0368
- sequenceData: "RRIRFRPPRLPRPRPRPFGIPRP"
  resultValue: -0.197
- sequenceData: "RRIRWRPPRLPRPRPRPIVVPRP"
  resultValue: -0.0496
- sequenceData: "RRIRFRPPRLPRPRPRPTADPRP"
  resultValue: 0.359
- sequenceData: "RRIRWRPPRLPRPRPRPYGMPRP"
  resultValue: -0.4
- sequenceData: "RRIRFRPPRLPRPRPRPSLWPRP"
  resultValue: 0.29
- sequenceData: "RRIRQRPPRLPRPRPRPPIFPRP"
  resultValue: 0.163
- sequenceData: "RRIRSRPPRLPRPRPRPEIDPRP"
  resultValue: 0.166
- sequenceData: "RRIRIRPPRLPRPRPRPKYTPRP"
  resultValue: -0.686
- sequenceData: "RRIRKRPPRLPRPRPRPFYLPRP"
  resultValue: -0.154
- sequenceData: "RRIRDRPPRLPRPRPRPRAHPRP"
  resultValue: 0.38
- sequenceData: "RRIRKRPPRLPRPRPRPATLPRP"
  resultValue: 0.312
- sequenceData: "RRIRVRPPRLPRPRPRPCQKPRP"
  resultValue: -0.0265
- sequenceData: "RRIRVRPPRLPRPRPRPNAGPRP"
  resultValue: 0.0323
- sequenceData: "RRIRQRPPRLPRPRPRPHACPRP"
  resultValue: -0.0973
- sequenceData: "RRIRWRPPRLPRPRPRPCIRPRP"
  resultValue: -0.147
- sequenceData: "RRIRNRPPRLPRPRPRPPVFPRP"
  resultValue: 0.15
- sequenceData: "RRIRWRPPRLPRPRPRPVPHPRP"
  resultValue: 0.271
- sequenceData: "RRIRIRPPRLPRPRPRPEACPRP"
  resultValue: -0.064
- sequenceData: "RRIRYRPPRLPRPRPRPNWGPRP"
  resultValue: -0.0851
- sequenceData: "RRIRGRPPRLPRPRPRPKESPRP"
  resultValue: 0.981
- sequenceData: "RRIRDRPPRLPRPRPRPDIRPRP"
  resultValue: -0.00151
- sequenceData: "RRIRIRPPRLPRPRPRPQWRPRP"
  resultValue: -0.191
- sequenceData: "RRIRNRPPRLPRPRPRPNVEPRP"
  resultValue: -0.0627
- sequenceData: "RRIRKRPPRLPRPRPRPAVRPRP"
  resultValue: 0.951
- sequenceData: "RRIRARPPRLPRPRPRPDHLPRP"
  resultValue: -0.0183
- sequenceData: "RRIRYRPPRLPRPRPRPQNYPRP"
  resultValue: -0.81
- sequenceData: "RRIRERPPRLPRPRPRPGHDPRP"
  resultValue: -0.449
- sequenceData: "RRIRWRPPRLPRPRPRPRGMPRP"
  resultValue: 0.313
- sequenceData: "RRIRNRPPRLPRPRPRPTSWPRP"
  resultValue: -0.228
- sequenceData: "RRIRARPPRLPRPRPRPETCPRP"
  resultValue: 0.331
- sequenceData: "RRIRVRPPRLPRPRPRPDEVPRP"
  resultValue: 0.0201
- sequenceData: "RRIRKRPPRLPRPRPRPKTMPRP"
  resultValue: 0.185
- sequenceData: "RRIRCRPPRLPRPRPRPDVSPRP"
  resultValue: -0.185
- sequenceData: "RRIRNRPPRLPRPRPRPQGNPRP"
  resultValue: -0.0905
- sequenceData: "RRIRDRPPRLPRPRPRPDKSPRP"
  resultValue: -0.119
- sequenceData: "RRIRHRPPRLPRPRPRPQVPPRP"
  resultValue: 0.0019
- sequenceData: "RRIRFRPPRLPRPRPRPVFWPRP"
  resultValue: 0.423
- sequenceData: "RRIRGRPPRLPRPRPRPMYVPRP"
  resultValue: -0.0802
- sequenceData: "RRIRFRPPRLPRPRPRPDIHPRP"
  resultValue: -0.268
- sequenceData: "RRIRPRPPRLPRPRPRPLCFPRP"
  resultValue: 0.354
- sequenceData: "RRIRDRPPRLPRPRPRPRICPRP"
  resultValue: 0.00396
- sequenceData: "RRIRTRPPRLPRPRPRPPWVPRP"
  resultValue: 0.128
- sequenceData: "RRIRDRPPRLPRPRPRPPTWPRP"
  resultValue: 0.291
- sequenceData: "RRIRIRPPRLPRPRPRPCKHPRP"
  resultValue: -0.118
